Biological target: T1, Peptide 4: Biotin-AGGGGSGGGGSGGGGSAAA-Tyr-acid (N-terminal biotin; C-terminal acid)
T1 construct: control peptide without PC
T1 peptide: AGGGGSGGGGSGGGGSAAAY
Assay: scFv ELISA
observed-property: OD450
Express the reported value numerically, then name its unit.

Study these solved cases before continuing.
PcOxP_DB01_F10 (scFv, V domains shown, scFv in periplasmic extract) VH: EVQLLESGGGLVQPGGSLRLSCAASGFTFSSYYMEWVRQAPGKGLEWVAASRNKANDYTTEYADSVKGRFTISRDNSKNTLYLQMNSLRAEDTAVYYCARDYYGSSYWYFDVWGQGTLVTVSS VL: DIQMTQSPSSLSASVGDRVTITCTASESLYSSKHKVHYLAWYQQKPGKAPKLLIYGASNGYIGVPSRFSGSGSGTDFTLTISSLQPEDFATYYCAQFYTYPLTFGGGTKVEIK | 0.05 OD450
PcOxP_DB03_G07 (scFv, V domains shown, scFv in periplasmic extract) VH: EVQLLESGGGLVQPGGSLRLSCAASGFTFSDHYMEWVRQAPGKGLEWVAASRNKANDYTTEYADSVKGRFTISRDNSKNTLYLQMNSLRAEDTAVYYCARDYYGQSYWYFDVWGQGTLVTVSS VL: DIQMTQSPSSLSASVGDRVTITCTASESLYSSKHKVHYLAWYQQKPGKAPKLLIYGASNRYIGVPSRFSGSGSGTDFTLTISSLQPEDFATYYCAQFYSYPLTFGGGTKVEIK | 0.06 OD450
PcOxP_DB02_C06 (scFv, V domains shown, scFv in periplasmic extract) VH: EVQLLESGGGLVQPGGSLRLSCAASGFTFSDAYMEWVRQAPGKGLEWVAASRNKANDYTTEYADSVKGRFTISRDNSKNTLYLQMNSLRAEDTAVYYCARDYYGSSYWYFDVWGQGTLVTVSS VL: DIQMTQSPSSLSASVGDRVTITCTASEWLYSSKHKVHYLAWYQQKPGKAPKLLIYGASNRNIGVPSRFSGSGSGTDFTLTISSLQPEDFATYYCAQFYYYPLTFGGGTKVEIK | 0.05 OD450
PcOxP_DB03_G02 (scFv, V domains shown, scFv in periplasmic extract) VH: EVQLLESGGGLVQPGGSLRLSCAASGFTFSDGYIEWVRQAPGKGLEWVAASRNKANDYTTEYADSVKGRFTISRDNSKNTLYLQMNSLRAEDTAVYYCARDYYGSSYWYFDVWGQGTLVTVSS VL: DIQMTQSPSSLSASVGDRVTITCTASEELYSSKHKVHYLAWYQQKPGKAPKLLIYGASNRYIGVPSRFSGSGSGTDFTLTISSLQPEDFATYYCAQFYSYPLTFGGGTKVEIK | 0.04 OD450
PcOxP_DB01_C06 (scFv, V domains shown, scFv in periplasmic extract) VH: EVQLLESGGGLVQPGGSLRLSCAASGFEFSDNYMEWVRQAPGKGLEWVAASRNKANDYTTEYADSVKGRFTISRDNSKNTLYLQMNSLRAEDTAVYYCARDYYGSSYWYFDVWGQGTLVTVSS VL: DIQMTQSPSSLSASVGDRVTITCTASESLYSSKHKVHYLAWYQQKPGKAPKLLIYGASNRFIGVPSRFSGSGSGTDFTLTISSLQPEDFATYYCAQFYYYPLTFGGGTKVEIK | 0.05 OD450

Lab book: OD450 of PcOxP_DB03_D08 (scFv, V domains shown, scFv in periplasmic extract) VH: EVQLLESGGGLVQPGGSLRLSCAASGFWFSDFYMEWVRQAPGKGLEWVAASRNKANDYTTEYADSVKGRFTISRDNSKNTLYLQMNSLRAEDTAVYYCARDYYGSAYWYFDVWGQGTLVTVSS VL: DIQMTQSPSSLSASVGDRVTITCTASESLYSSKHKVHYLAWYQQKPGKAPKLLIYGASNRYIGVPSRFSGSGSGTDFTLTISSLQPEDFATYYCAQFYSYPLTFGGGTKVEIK noted as 0.05 OD450

Just so you know, measured OD450 for PcOxP_DB02_D01 (scFv, V domains shown, scFv in periplasmic extract) VH: EVQLLESGGGLVQPGGSLRLSCAASGFGFSDFYMEWVRQAPGKGLEWVAASRHKANDYTTEYADSVKGRFTISRDNSKNTLYLQMNSLRAEDTAVYYCARDYYGSSYWYFDVWGQGTLVTVSS VL: DIQMTQSPSSLSASVGDRVTITCTASESLYSSKHKVHYLAWYQQKPGKAPKLLIYGASNRYIGVPSRFSGSGSGTDFTLTISSLQPEDFATYYCAQFYWYPLTFGGGTKVEIK came out at 0.05 OD450
